This section presents compounds with their documented remaining activity at 2 µM values.
# TGT: recombinant human CK2 catalytic subunit (rhCK2α) (Homo sapiens)
# Construct: made in house
# PROTOCOL NOTES: radiometric P81 filter isotopic kinase assay, CK2α
# Format: biochemical
# RUN PARAMETERS: cpd. concentration 2 μM; read-out: CK2α Residual Activity [%]
# Description: Synthetic peptide […] served as the substrate for CK2, while peptide […] was used as the substrate for PIM-1. The synthesized compounds were evaluated for their inhibitory activity against human CK2α, the human CK2 holoenzyme, and PIM-1 using the P81 filter-based isotopic assay, as previously described. […]
ASSAY METRIC: remaining activity at 2 µM (%)

1. CC(=O)Cn1cnc2c(Br)c(Br)c(Br)c(Br)c21	58.5
2. CC(O)CCn1cnc2c(Br)c(Br)c(Br)c(Br)c21 (stereo not shown)	72.1
3. CC(=O)CCn1cnc2c(Br)c(Br)c(Br)c(Br)c21	102
4. CC(O)Cn1cnc2c(Br)c(Br)c(Br)c(Br)c21 (stereo not shown)	70.9

====

# TGT: recombinant human CK2 catalytic subunit (rhCK2α) (Homo sapiens, UniProt P68400)
# Sequence (P68400 whole entry): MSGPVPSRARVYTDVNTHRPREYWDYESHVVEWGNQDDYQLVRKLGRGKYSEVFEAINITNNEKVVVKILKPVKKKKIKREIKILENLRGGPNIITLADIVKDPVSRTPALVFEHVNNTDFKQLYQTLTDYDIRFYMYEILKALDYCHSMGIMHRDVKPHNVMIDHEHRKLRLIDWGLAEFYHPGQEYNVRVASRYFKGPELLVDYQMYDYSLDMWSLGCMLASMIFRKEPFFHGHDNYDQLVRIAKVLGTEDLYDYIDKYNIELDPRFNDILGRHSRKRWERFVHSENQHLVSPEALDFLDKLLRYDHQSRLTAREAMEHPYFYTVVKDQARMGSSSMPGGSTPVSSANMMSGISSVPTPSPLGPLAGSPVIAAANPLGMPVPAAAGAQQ
# PROTOCOL NOTES: radiometric P81 filter isotopic kinase assay, CK2α
ASSAY METRIC: IC50 (µM)

1) CC(=O)Cn1cnc2c(Br)c(Br)c(Br)c(Br)c21	6.65
2) CC(O)Cn1cnc2c(Br)c(Br)c(Br)c(Br)c21 (centres unmarked)	11.1

====

# TGT: PIM-1 kinase (Homo sapiens)
# Construct: made in house
# Sequence (P11309 whole entry): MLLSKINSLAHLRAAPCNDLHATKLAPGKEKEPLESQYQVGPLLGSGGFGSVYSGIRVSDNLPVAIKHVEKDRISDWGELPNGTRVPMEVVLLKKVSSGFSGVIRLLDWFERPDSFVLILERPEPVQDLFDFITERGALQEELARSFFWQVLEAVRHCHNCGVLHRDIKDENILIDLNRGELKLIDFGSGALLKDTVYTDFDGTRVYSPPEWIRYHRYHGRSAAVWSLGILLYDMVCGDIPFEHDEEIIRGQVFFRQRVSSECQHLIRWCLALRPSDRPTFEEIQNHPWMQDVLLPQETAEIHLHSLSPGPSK
# PROTOCOL NOTES: radiometric P81 filter isotopic kinase assay, PIM-1
# Format: biochemical
# RUN PARAMETERS: cpd. concentration 2 μM; read-out: PIM-1 Residual Activity [%]
remaining activity at 2 µM values for the compounds below.
ASSAY METRIC: remaining activity at 2 µM (%)

1. CC(O)CCn1cnc2c(Br)c(Br)c(Br)c(Br)c21 (stereo not shown)	66.9
2. CC(O)Cn1cnc2c(Br)c(Br)c(Br)c(Br)c21 (stereo not shown)	58
3. CC(=O)CCn1cnc2c(Br)c(Br)c(Br)c(Br)c21	82.5
4. CC(=O)Cn1cnc2c(Br)c(Br)c(Br)c(Br)c21	22.4

====

# TGT: PIM-1 kinase (Homo sapiens)
pIC50: −log10 of the molar value.
ASSAY METRIC: pIC50

1. Brc1c(Br)c(Br)c2[nH]cnc2c1Br [TBBi, 4,5,6,7-tetrabromo-1H-benzimidazole, reference compound]	6.28

====

# System: MDA-MB-231 (breast carcinoma)
# PROTOCOL NOTES: MTT-based viability assay, MDA-MB-231
# Type: cell-based, human
# RUN PARAMETERS: Homo sapiens, MDA-MB-231; MTT, 48 h; read-out: IC50 [µM] MDA-MB-231
# maps each entry to its IC50
ASSAY METRIC: IC50

1. CC(=O)Cn1cnc2c(Br)c(Br)c(Br)c(Br)c21	21.2 µM
2. CC(O)Cn1cnc2c(Br)c(Br)c(Br)c(Br)c21 (stereo not drawn)	28.2 µM
3. CC(O)CCn1cnc2c(Br)c(Br)c(Br)c(Br)c21 (stereo not drawn)	> 200 µM

====

# Tested on: CCRF-CEM (acute lymphoblastic leukemia)
# PROTOCOL NOTES: MTT-based viability assay, CCRF-CEM
# Type: cell-based, human
# RUN PARAMETERS: Homo sapiens, CCRF-CEM, 48 h, read-out: IC50 [µM] CCRF-CEM
ASSAY METRIC: IC50 (µM)

1) Brc1c(Br)c(Br)c2[nH]cnc2c1Br [TBBi, 4,5,6,7-tetrabromo-1H-benzimidazole, reference compound]	17.6
